The reader will find reported melting point values listed item by item below.

{"columns": ["COMPOUND", "melting point"],
 "data": [
  ["NC(=O)c1cccc(S(=O)(=O)Cl)c1", "78 to 80 °C"],
  ["c1cnc(N2CCNCC2)cn1", "48 to 50 °C"],
  ["Nc1cnc2ccccc2n1", "138 to 140 °C"],
  ["O=C(O)C1CC1c1ccc(Cl)cc1Cl (configuration not stated)", "157 to 159 °C"],
  ["NCc1cccc(NC(=O)C2CC2)c1", "96 to 98 °C"]
]}

Item: `Cc1cc(C)c(C(=O)CCCC(=O)O)c(C)c1` | melting point: 75 to 77 °C

Sample `Nc1cccc(S(=O)(=O)Nc2ccccc2)c1` ; melting point observed: 127 to 129 °C

Entry `COc1cc(F)c(N)cc1F` ; melting point = 80 to 82 °C

// sample `CCOC(=O)c1ccn(-c2cccc(N)c2)n1` , its melting point was 97 to 99 °C

Looking up CCOC(=O)C1=C(CCl)NC(=O)NC1c1ccc(OC)cc1 (configuration not stated) , I see its melting point listed as 169 to 171 °C

====

ASSAY_READOUT: melting point

Illustrative cases are given below, each with its answer.
{"columns": ["COMPOUND", "melting point"],
 "data": [
  ["O=C1CNC(=O)N1CCBr", "134 to 136 °C"],
  ["CCc1c(N)cnn1C", "49 to 51 °C"],
  ["COc1cc(C=O)ccc1OS(=O)(=O)c1cc(C)ccc1C", "82 to 84 °C"],
  ["O=[N+]([O-])c1n[nH]cc1S(=O)(=O)Cl", "154 to 156 °C"],
  ["O=C(O)c1sccc1-c1ccccc1", "206 to 208 °C"]
]}

Quick note, melting point for `O=c1[nH]c(CCl)nc2sccc12` landed at 209 to 211 °C

Lookup result for `Brc1ccc(Cc2nnn[nH]2)cc1` ; measured melting point: 172 to 174 °C

Record `Nc1nc(-c2cccc(F)c2)cs1` . Reported melting point: 113 to 115 °C

====

ASSAY_READOUT: melting point

Example molecules with recorded melting point:
{"columns": ["MOLECULE", "melting point"],
 "data": [
  ["Nc1cncc(Cl)c1Cl", "97 to 99 °C"],
  ["CC(C)(C)OC(=O)Nc1csc(Br)c1", "84 to 86 °C"],
  ["O=c1[nH]c2ccccc2c(=O)n1CCO", "257 to 259 °C"],
  ["Nc1nc2ccccc2o1", "124 to 126 °C"],
  ["OCc1ccc(O)c(F)c1", "81 to 83 °C"]
]}

molecule `Cc1ccc(-c2nc(N)sc2CC(=O)O)cc1` , melting point observed: 218 to 222 °C

Please fill in: melting point reported for `Cc1ccccc1-n1c(C)cc(C=O)c1C` = 71 to 73 °C

Noted for `CCC(C)(C)c1ccc(OCCCC(=O)O)c(C(C)(C)CC)c1` : its melting point reads 99 to 101 °C

`Cc1ccccc1-n1c(C)nnc1S` yielded melting point of 201 to 203 °C

Noted for `CCN1C(=O)C(=O)c2cc(C)ccc21` : its melting point reads 104 to 106 °C

// melting point lookup, molecule = `N#CSCC(=O)c1ccccc1C(F)(F)F` , result: 49 to 51 °C

Given item CC(Cl)C(=O)Nc1ccc(N2CCCC2=O)cc1 (centres undefined) , the value recorded as its melting point is 194 to 196 °C

# melting point (molecule: `COc1ccc(S(=O)(=O)Cl)c(OC)c1C(=O)O` ) is 129 to 131 °C

// field: melting point; key: `O=C(O)c1cc(F)c(F)c(S(=O)(=O)Cl)c1` ; value = 154 to 156 °C

The reported numbers originate from a melting point compilation (Tetko et al.).
